Reference source for all entries: the supplement of paper PMC5998384

system: HeLa Kyoto; test: thermal stability score vs G1/S (z-score of summed log2 fold changes over temperatures); higher = more thermally stable than in G1/S; details: cell cycle stage: mitosis;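 note: synchronized HeLa Kyoto cells, proteins quantified by TMT10plex mass spectrometry, three biological replicates, mitosis taken 0.5 h after nocodazole release, G1/S directly after double thymidine block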
Experimental readout: thermal stability score

Enquiry: thermal stability score for MAEKVLVTGGAGYIGSHTVLELLEAGYLPVVIDNFHNAFRGGGSLPESLRRVQELTGRSVEFEEMDILDQGALQRLFKKYSFMAVIHFAGLKAVGESVQKPLDYYRVNLTGTIQLLEIMKAHGVKNLVFSSSATVYGNPQYLPLDEAHPTGGCTNPYGKSKFFIEEMIRDLCQADKTWNAVLLRYFNPTGAHASGCIGEDPQGIPNNLMPYVSQVAIGRREALNVFGNDYDTEDGTGVRDYIHVVDLAKGHIAALRKLKEQCGCRIYNLGTGTGYSVLQMVQAMEKASGKKIPYKVVARREGDVAACYANPSLAQEELGWTAALGLDRMCEDLWRWQKQNPSGFGTQA [GALE] ?
Return: -0.458

Enquiry: Same for MLGAWAVEGTAVALLRLLLLLLPPAIRGPGLGVAGVAGAAGAGLPESVIWAVNAGGEAHVDVHGIHFRKDPLEGRVGRASDYGMKLPILRSNPEDQILYQTERYNEETFGYEVPIKEEGDYVLVLKFAEVYFAQSQQKVFDVRLNGHVVVKDLDIFDRVGHSTAHDEIIPMSIRKGKLSVQGEVSTFTGKLYIEFVKGYYDNPKVCALYIMAGTVDDVPKLQPHPGLEKKEEEEEEEEYDEGSNLKKQTNKNRVQSGPRTPNPYASDNSSLMFPILVAFGVFIPTLFCLCRL [MLEC]
Return: 2.38

Enquiry: Also need MGLAGVCALRRSAGYILVGGAGGQSAAAAARRYSEGEWASGGVRSFSRAAAAMAPIKVGDAIPAVEVFEGEPGNKVNLAELFKGKKGVLFGVPGAFTPGCSKTHLPGFVEQAEALKAKGVQVVACLSVNDAFVTGEWGRAHKAEGKVRLLADPTGAFGKETDLLLDDSLVSIFGNRRLKRFSMVVQDGIVKALNVEPDGTGLTCSLAPNIISQL [PRDX5] , thanks.
Return: -2.67

Enquiry: Continue with MPHSYPALSAEQKKELSDIALRIVAPGKGILAADESVGSMAKRLSQIGVENTEENRRLYRQVLFSADDRVKKCIGGVIFFHETLYQKDDNGVPFVRTIQDKGIVVGIKVDKGVVPLAGTDGETTTQGLDGLSERCAQYKKDGADFAKWRCVLKISERTPSALAILENANVLARYASICQQNGIVPIVEPEILPDGDHDLKRCQYVTEKVLAAVYKALSDHHVYLEGTLLKPNMVTPGHACPIKYTPEEIAMATVTALRRTVPPAVPGVTFLSGGQSEEEASFNLNAINRCPLPRPWALTFSYGRALQASALNAWRGQRDNAGAATEEFIKRAEVNGLAAQGKYEGSGEDGGAAAQSLYIANHAY [ALDOC]
Return: -2.38

Enquiry: Queued: MGDPERPEAAGLDQDERSSSDTNESEIKSNEEPLLRKSSRRFVIFPIQYPDIWKMYKQAQASFWTAEEVDLSKDLPHWNKLKADEKYFISHILAFFAASDGIVNENLVERFSQEVQVPEARCFYGFQILIENVHSEMYSLLIDTYIRDPKKREFLFNAIETMPYVKKKADWALRWIADRKSTFGERVVAFAAVEGVFFSGSFAAIFWLKKRGLMPGLTFSNELISRDEGLHCDFACLMFQYLVNKPSEERVREIIVDAVKIEQEFLTEALPVGLIGMNCILMKQYIEFVADRLLVELGFSKVFQAENPFDFMENISLEGKTNFFEKRVSEYQRFAVMAETTDNVFTLDADF [RRM2B]
Return: 0.292

Enquiry: Param item: MAELRVLVAVKRVIDYAVKIRVKPDRTGVVTDGVKHSMNPFCEIAVEEAVRLKEKKLVKEVIAVSCGPAQCQETIRTALAMGADRGIHVEVPPAEAERLGPLQVARVLAKLAEKEKVDLVLLGKQAIDDDCNQTGQMTAGFLDWPQGTFASQVTLEGDKLKVEREIDGGLETLRLKLPAVVTADLRLNEPRYATLPNIMKAKKKKIEVIKPGDLGVDLTSKLSVISVEDPPQRTAGVKVETTEDLVAKLKEIGRI [ETFB]
Return: -0.806

Enquiry: Query MTSELDIFVGNTTLIDEDVYRLWLDGYSVTDAVALRVRSGILEQTGATAAVLQSDTMDHYRTFHMLERLLHAPPKLLHQLIFQIPPSRQALLIERYYAFDEAFVREVLGKKLSKGTKKDLDDISTKTGITLKSCRRQFDNFKRVFKVVEEMRGSLVDNIQQHFLLSDRLARDYAAIVFFANNRFETGKKKLQYLSFGDFAFCAELMIQNWTLGAVGEAPTDPDSQMDDMDMDLDKEFLQDLKELKVLVADKDLLDLHKSLVCTALRGKLGVFSEMEANFKNLSRGLVNVAAKLTHNKDVRDLFVDLVEKFVEPCRSDHWPLSDVRFFLNQYSASVHSLDGFRHQALWDRYMGTLRGCLLRLYHD [FIBP] next
Return: 0.233

Enquiry: Now consider MLRCGGRGLLLGLAVAAAAVMAARLMGWWGPRAGFRLFIPEELSRYRGGPGDPGLYLALLGRVYDVSSGRRHYEPGSHYSGFAGRDASRAFVTGDCSEAGLVDDVSDLSAAEMLTLHNWLSFYEKNYVCVGRVTGRFYGEDGLPTPALTQVEAAITRGLEANKLQLQEKQTFPPCNAEWSSARGSRLWCSQKSGGVSRDWIGVPRKLYKPGAKEPRCVCVRTTGPPSGQMPDNPPHRNRGDLDHPNLAEYTGCPPLAITCSFPL [CYB5D2] and answer again.
Return: -0.244

Enquiry: Could you do the same for MASLLAKDAYLQSLAKKICSHSAPEQQARTRAGKTQGSETAGPPKKKRKKTQKKFRKREEKAAEHKAKSLGEKSPAASGARRPEAAKEEAAWASSSAGNPADGLATEPESVFALDVLRQRLHEKIQEARGQGSAKELSPAALEKRRRRKQERDRKKRKRKELRAKEKARKAEEATEAQEVVEATPEGACTEPREPPGLIFNKVEVSEDEPASKAQRRKEKRQRVKGNLTPLTGRNYRQLLERLQARQSRLDELRGQDEGKAQELEAKMKWTNLLYKAEGVKIRDDERLLQEALKRKEKRRAQRQRRWEKRTAGVVEKMQQRQDRRRQNLRRKKAARAERRLLRARKKGRILPQDLERAGLV [SURF6] , please?
Return: -6.87
